Tested on: HL-60(TB) leukemia
testSummary: NCI tumour cell line growth inhibition, 48 h
Catalogue of TGI values
Answer with a number only, understood to be in µM.

compound | unitAbbreviation | TGI
O=C1CC(c2ccsc2)c2snc(-c3ccc(Cl)cc3)c2N1 (stereo not given) | µM | 3.33
Cc1c2oc3c(C)cc(F)c(C(=O)NC4C(=O)NC(C(C)C)C(=O)N5CCCC5C(=O)N(C)CC(=O)N(C)C(C(C)C)C(=O)OC4C)c3nc-2c(C(=O)NC2C(=O)NC(C(C)C)C(=O)N3CCCC3C(=O)N(C)CC(=O)N(C)C(C(C)C)C(=O)OC2C)c(N)c1=O (stereo not given) | µM | 0.161

Form: compound = S=C(N/N=C(\C(=N/NC(=S)N1CCCCC1)c1ccccn1)c1ccccn1)N1CCCCC1 ; TGI = 19.8

Form: compound = Cc1ccc(-c2cc(-c3ccc(C)cc3)nc(N3CCN(CCNc4ccnc5cc(Cl)ccc45)CC3)n2)cc1 ; TGI = 11.6

Form: compound = CC(=O)c1[nH]c(Nc2ccc(C)cc2)c(C(=S)Nc2ccccc2)c1N ; TGI = 54.1

Form: compound = COc1cc(C(=O)O/N=C(\N)Cc2cccc3ccccc23)cc(OC)c1OC ; TGI = 36.5

Form: compound = O=c1c2c(=NCCN3CCCC3)cc3c(=O)n(CCCN4CCOCC4)c(=O)c4ccc(c(O)n1CCCN1CCOCC1)c2c4-3 ; TGI = 1.43

Form: compound = CCSc1ccc([C@@H]2[C@@H](N)C(=O)N2c2cc(OC)c(OC)c(OC)c2)cc1 ; TGI = 0.067

Form: compound = CCOc1ccc(NCC2CC/C(=C\c3ccc(Cl)cc3)C2=O)cc1 (stereo not given) ; TGI = 37.3

---

Catalogue of TGI values
Test system: OVCAR-4 ovarian
testSummary: NCI tumour cell line growth inhibition, 48 h

Worked examples, 6 compounds total:
compound | studySystem | result
CCOC(=O)Cn1c(-c2nonc2NC(=O)c2ccccc2F)nc2ccccc21 | OVCAR-4 ovarian | > 100 µM
COc1cc(C2c3cc(OC)c(OC)c(O)c3C(=O)C3CCC(=O)N32)cc(OC)c1OC (centres undefined) | OVCAR-4 ovarian | > 100 µM
N#Cc1cc([N+](=O)[O-])ccc1NC(=O)C(=O)C(C(=O)c1ccc2ccccc2c1)C1OCc2ccccc21 (centres undefined) | OVCAR-4 ovarian | > 55.2 µM
CN(C)C=NCC(O)c1ccccc1 (centres undefined) | OVCAR-4 ovarian | > 100 µM
ClC1c2ccccc2C2(c3ccccc3)OOC1(c1ccccc1)O2 (centres undefined) | OVCAR-4 ovarian | 3.08 µM
CNC(=O)c1cc(Oc2ccc3nc(N[C@@H]4CCCC[C@H]4O)sc3c2)ccn1 | OVCAR-4 ovarian | > 100 µM

Form: compound = O=c1[nH]nc(Cc2ccc(Cl)cc2)n1/N=C/c1c[nH]c2ccccc12 ; TGI = > 100 µM

Form: compound = O=c1c2c(=NCCN3CCCC3)cc3c(=O)n(CCCN4CCOCC4)c(=O)c4ccc(c(O)n1CCCN1CCOCC1)c2c4-3 ; TGI = 0.735 µM

Form: compound = CCCCCCCCCCC[C@@H](C[C@H]1OC(=O)[C@H]1CCCCCC)OC(=O)[C@@H](CC(C)C)NC=O ; TGI = 37.7 µM
